Let's look at some compounds and their measured TGI.
# Tested on: U251 CNS
# experimental details: NCI tumour cell line growth inhibition, 48 h
Where a SMILES comes first, the peptide text is derived from it. [ ]: non-standard residue; d: D form. The star is where a group is joined. ξ: configuration not given here. Cbz = O=C(OCc1ccccc1)*; ξK = NCCCCC(N)C(=O)O

# compound, result
measured = [
    ("CC1(C)CC(=O)C(Cc2ccccc2)(Cc2ccccc2)C(=O)C1", "> 100 µM"),
    ("Nc1nc[n+](Cc2ccccc2CCO)c2nc[nH]c12", "> 100 µM"),
    ("CCOC(=O)C(=O)/C=C(\\C)Nc1c(NC2OCC(OC(C)=O)C(OC(C)=O)C2OC(C)=O)nc(SC)[nH]c1=O (configuration not stated)", "> 100 µM"),
    ("NCCCCC(NC(=O)OCc1ccccc1)C(=O)NCC(N)=O (configuration not stated) (Cbz-[ξK]-Gly-NH2)", "> 100 µM"),
]

Ask | Hello, please tell me recorded TGI for this one: COc1ccc(C2=NN(C(=O)c3ccc(Cl)cc3)C(O)(c3cc(F)c(Cl)cc3Cl)C2)cc1OC (configuration not stated)
Reply | > 100 µM

Ask | Hello, please tell me recorded TGI for this one: O=C1C[C@H](Sc2ccccc2)C2(OCCO2)[C@H]2ON3CCC[C@@H]3[C@@H]12
Reply | 6.66 µM

Ask | Hello, please tell me recorded TGI for this one: COc1ccc(C(OCC2OC(n3cnc4c(=O)n(Cc5ccccc5[N+](=O)[O-])nnc43)C(O)C2O)(c2ccccc2)c2ccc(OC)cc2)cc1 (configuration not stated)
Reply | > 100 µM

Ask | Hello, please tell me recorded TGI for this one: Cc1cc2c(cc1C)N1C(Cl)=C3CCCCC3=C(C#N)C1N2 (configuration not stated)
Reply | 24.6 µM

Ask | Hello, please tell me recorded TGI for this one: C=C(Br)CN(C)CC(=C)Br
Reply | > 100 µM

Ask | Hello, please tell me recorded TGI for this one: O=C1/C(=C\c2ccc(Br)cc2)CN(C(=O)c2ccccc2F)C/C1=C\c1ccc(Br)cc1
Reply | 2.69 µM

Ask | Hello, please tell me recorded TGI for this one: O=C(C(=NC12CC3CC(CC(C3)C1)C2)NNc1ccc([N+](=O)[O-])cc1[N+](=O)[O-])C(Br)C(=O)c1ccccc1 (configuration not stated)
Reply | > 10 µM

Where do these numbers come from? They come from PubChem BioAssay (NCI).
